TARGET ENTITY: Voltage-gated potassium channel subunit beta-2 (Rattus norvegicus)
ASSAY NOTES: enhancers of rat Kvbeta2 NADPH turnover – biochemical, NADPH fluorescence, primary screen (AID 623);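 also: fluorescence intensity change per second fitted from 20 to 320 s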
PARTICULARS: Recombinant KvBeta, NADPH fluorescence decrease slope, 10 min; at 10 µM; stronger effect = lower value
NADPH fluorescence slope listing for selected molecules.

| MOLECULE | NADPH fluorescence slope |
| --- | --- |
| CC(C)(C)OC(=O)NC(CCNC=C1C(=O)OC(C)(C)OC1=O)C(=O)O (stereo not drawn) | -5.2e-05 |
| CSc1ccccc1NC(=O)c1noc2c1CCC2 | -8e-06 |
| COc1ccc(CC(NC(C)=O)C(=O)NC2CCN(c3nc(C)cc(C)c3C#N)CC2)c(OC)c1 (stereo not drawn) | -1.7e-05 |
| CC(=O)C1=C(O)C(=O)N(Cc2ccco2)C1c1ccc(F)cc1 (stereo not drawn) | 1e-05 |
| Cc1nonc1NC(=O)c1ccccc1Br | -5.8e-05 |
| CCOc1nc(-c2ccccc2O)nc2ccccc12 | -2.5e-05 |
| C/C(=C\C(=O)c1ccc(F)cc1)Nc1ccc(N2CCOCC2)cc1 | 3.5e-06 |
| COc1cc(C2C(C#N)=C(N)OC3=C2C(=O)CC(C)(C)C3)ccc1OC(=O)N1CCOCC1 (stereo not drawn) | 1.1e-05 |

----------
ASSAY NOTES: endothelial E-selectin expression blockers – imaging, HUVEC, immunofluorescence, MLSMR starter and 10KST1 sets, primary screen (AID 487);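 also: signal is fraction of cell area covered by stained E-selectin grains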
PARTICULARS: HUVEC TNFalpha-induced E-selectin immunofluorescence imaging, at 2 µM; stronger effect = higher value
inhibition listing for selected compounds.

| COMPOUND | UNIT DESCRIPTOR | inhibition |
| --- | --- | --- |
| CCOC(=O)CSc1nnc(CNC(=O)c2ccc(S(=O)(=O)N3CCCC3)cc2)n1C | % | -54.4 |
| O=C(Nc1ccc(Cc2ccncc2)cc1)C1CC1 | % | -33.5 |
| O=C(CCN1CCOCC1)Nc1cccc(Br)c1 | % | -70.3 |
| O=C(CSc1ncccn1)c1ccccc1Br | % | 1.5 |
| Cn1c(CN2CCOCC2)nnc1SCC(=O)NCCc1ccccc1 | % | -161 |
| O=C(C1CCN(S(=O)(=O)Cc2ccccc2)CC1)N1CCN(c2ncccn2)CC1 | % | 34.3 |
| CC1=Nn2c(nnc2-c2cc(-c3ccccc3)n[nH]2)SC1 | % | 32.4 |
| COc1ccccc1C1N(c2ccc(F)cc2)C(=O)C2CCCN21 (stereo unspecified) | % | 27.9 |
| C#CCSc1nc(-c2cccs2)ccc1C#N | % | -85.2 |
| COc1ccc(NC(C)=O)cc1NC(=O)CN1CCN(c2ccccn2)CC1 | % | -35.2 |
| Cc1ccc(S(=O)(=O)NCC(=O)OCC(=O)Nc2ncc(Cl)cc2Cl)cc1 | % | -42.3 |
| O=C(Nc1ccc(O)cc1)C1CCCN1S(=O)(=O)c1ccc(F)cc1 (stereo unspecified) | % | -33.3 |
| COc1cc2c(C#N)c(N3CCN(c4ccccc4OC)CC3)nc(N)c2c(N)n1 | % | -76.6 |
| CCN(CC)C(c1ccc(C)cc1)c1nnnn1C1CCCCC1 (stereo unspecified) | % | 60 |
| O=C1C2C3C=CC(C3)C2C(=O)N1Cc1ccccc1 (stereo unspecified) | % | 40.2 |
| O=C(NCCSCc1ccco1)Nc1cccc(Cl)c1 | % | -67.4 |
| CCC1CCCCN1CCCNC(=O)c1ccc(CS(=O)(=O)Cc2ccccc2F)o1 (stereo unspecified) | % | -64.6 |
| COc1ccc(-c2cc3nc4n(c(=O)c3s2)CCC4)cc1 | % | -96.4 |
| CCn1c(SC)nc2c(c1=O)SC(C)C2 (stereo unspecified) | % | -20.6 |
| Oc1ccc2[nH]cnc2c1CN1CCCCC1 | % | 8 |
| CC(=O)c1c(C)nn(CC(O)COc2ccc3c(c2)CCC3)c1C (stereo unspecified) | % | -169 |
